Can you tell me CC50 at 72 h for the items I'm about to list?
protocol: in vitro
assay_setup: African green monkey
Positions of bridges follow the written chain, without caps; N, C: chain ends. Non-standard residues stand in square brackets, D forms with d. Residues, ends and D or L forms follow the SMILES beside them. Phe(4-COOH) = N[C@@H](Cc1ccc(C(=O)O)cc1)C(=O)O; Phe(4-F) = N[C@@H](Cc1ccc(F)cc1)C(=O)O; NMeF = CN[C@@H](Cc1ccccc1)C(=O)O; NMeE = CN[C@@H](CCC(=O)O)C(=O)O; Cha = N[C@@H](CC1CCCCC1)C(=O)O; Cit = NC(=O)NCCC[C@H](N)C(=O)O; NMeNle = CCCC[C@H](NC)C(=O)O; Aib = CC(C)(N)C(=O)O

Guide cases for CC50 at 72 h, answers given:
{"compound": "CCCC[C@H]1C(=O)NC(C)(C)C(=O)N[C@@H](CC2CCCCC2)C(=O)N[C@@H](Cc2ccc(F)cc2)C(=O)N[C@H](CC(=O)O)C(=O)N[C@@H](Cc2ccc(O)cc2)C(=O)N[C@@H](Cc2ccc(O)cc2)C(=O)N[C@@H](Cc2ccc(C(=O)O)cc2)C(=O)N[C@H](CCCNC(=N)N)C(=O)N[C@@H](CC2CCCCC2)C(=O)N[C@H](C(N)=O)CSCC(=O)N(C)[C@@H](CCC(=O)O)C(=O)N1C [Peptide 5555_p003] ({CH2CO}-[NMeE][NMeNle][Aib][Cha][Phe(4-F)][dD]YY[Phe(4-COOH)][dR][Cha]C-NH2; thioether N-12)", "CC50 at 72 h": "> 100 µM"}
{"compound": "CCCC[C@H]1C(=O)NC(C)(C)C(=O)N[C@@H](CC2CCCCC2)C(=O)N[C@@H](Cc2ccc(F)cc2)C(=O)N(C)[C@@H](CCC(=O)O)C(=O)N[C@@H](Cc2ccc(O)cc2)C(=O)N[C@@H](Cc2ccc(O)cc2)C(=O)N[C@@H](Cc2ccc(C(=O)O)cc2)C(=O)N[C@H](CCCNC(=N)N)C(=O)N[C@@H](CC2CCCCC2)C(=O)N[C@H](C(N)=O)CSCC(=O)N(C)[C@@H](CCC(=O)O)C(=O)N1C [Peptide 5555_p005] ({CH2CO}-[NMeE][NMeNle][Aib][Cha][Phe(4-F)][NMeE]YY[Phe(4-COOH)][dR][Cha]C-NH2; thioether N-12)", "CC50 at 72 h": "> 100 µM"}
{"compound": "C[C@H]1C(=O)N(C)[C@@H](Cc2ccccc2)C(=O)N[C@@H](CO)C(=O)N[C@@H](CC2CCCCC2)C(=O)N[C@@H](Cc2ccc(O)cc2)C(=O)N[C@@H](CO)C(=O)N[C@@H](Cc2ccc(O)cc2)C(=O)N[C@@H](Cc2ccc(O)cc2)C(=O)N[C@@H](CCCNC(=N)N)C(=O)N[C@@H](CCCNC(=N)N)C(=O)N[C@@H](CC2CCCCC2)C(=O)N[C@H](C(=O)N[C@H](CCC(=O)O)C(N)=O)CSCC(=O)N1C [Peptide 5555_p000, MeA-MeF-S-Cha-Y-S-Y-Y-R-R-Cha-C]", "CC50 at 72 h": "> 1 µM"}

Let's switch to this compound now.
Qu. Quick one: CC50 at 72 h of CN1C(=O)CSC[C@@H](C(=O)N[C@H](CCC(=O)O)C(N)=O)NC(=O)[C@H](CC2CCCCC2)NC(=O)[C@H](CCCCN)NC(=O)[C@H](CCCNC(N)=O)NC(=O)[C@H](Cc2ccc(O)cc2)NC(=O)[C@H](Cc2ccc(O)cc2)NC(=O)[C@H](CCC(=O)O)N(C)C(=O)[C@H](Cc2ccc(F)cc2)NC(=O)[C@H](CC2CCCCC2)NC(=O)[C@H](CO)NC(=O)[C@H](Cc2ccccc2)N(C)C(=O)[C@@H]1CCC(=O)O [Peptide 5555_p092] ({CH2CO}-[NMeE][NMeF]S[Cha][Phe(4-F)][NMeE]YY[Cit]K[Cha]C[dE]-NH2; thioether N-12) ?
Ans. > 100 µM
